Tested on: LXRb:RXRa (NR concentration 270 nM, RXRa partner concentration 90 nM)
ASSAY METHOD TEXT: PBM binding z-score (relative to random genomic background probes); higher = stronger binding; sequences stand for … in GC…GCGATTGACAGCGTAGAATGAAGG
We use 1 as the dividing line for PBM binding z-score: on or above the line is yes (1), below is no (0).

>>> class_label("TCTATTAGTTGATTAGGGCAACGGAAACAGCGGA")
"no (0)"
>>> class_label("GCTTGTTGGTCAGTAAAAGGTCACACACCGGTCG")
"yes (1)"
>>> class_label("ATCTCTAGGTAACAAGTTGAGTGAAAGAGAGGAC")
"no (0)"
>>> class_label("AGAACGAGGGCAATGAGTTGATAGGACGGGTGGC")
"no (0)"
>>> class_label("ATCGAAAGGTCGAAGGTGAGTATGCCCACCCGAA")
"yes (1)"
>>> class_label("CCTACTGGGCCATCAGGTCATAGATATCAACGTT")
"yes (1)"

---

Catalogue of PBM binding z-score values
System: PPARg:RXRa 90nM:30nM, anti-RXR (NR concentration 90 nM, RXRa partner concentration 30 nM)
ASSAY METHOD TEXT: PBM binding z-score (relative to random genomic background probes); higher = stronger binding; sequences stand for … in GC…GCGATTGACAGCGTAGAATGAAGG
OBSERVED PROPERTY: PBM binding z-score

>>> assay_result("TCTAGTTGGTCAAAGGTCACTCACTCGAAATGCG")
12.1
>>> assay_result("AGTCAAAGTTCCCTAGGTAACGTAAGATTCAGCT")
-0.0115
>>> assay_result("TCTTGTTGATCAACAGGAGGTTAAGAAAGATCGA")
2.1
>>> assay_result("CGAACGAGGGCATCAGTTGATAGCAAATGCCGAT")
0.293
>>> assay_result("TCTTGTAGATCAAAGGCTAAGAAAGCCGAAGCCT")
5.12
>>> assay_result("ACTATTAGTTGAGACGAGGGCTACCGATAGGTTG")
0.0258

---

Measured PBM binding z-score values are reported for all entries that follow.
Tested on: PPARg DBDmut:RXRa IVT, anti-PPARg (DBD mutation: PPARg1 K132A/R137A, NR concentration 270 nM, RXRa partner concentration 90 nM)
ASSAY METHOD TEXT: PBM binding z-score (relative to random genomic background probes); higher = stronger binding; sequences stand for … in GC…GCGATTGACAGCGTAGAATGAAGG
OBSERVED PROPERTY: PBM binding z-score

>>> assay_result("CCAATTAGTTGACCATAAGGGCAACCGAAGCTCG")
0.198
>>> assay_result("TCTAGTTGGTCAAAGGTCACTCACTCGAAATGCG")
2.62
>>> assay_result("CCTTACGGGTCACTCCAGATTATAGCATCGGAGT")
0.108
>>> assay_result("CCTACTGGGCCATTCAGGGGTCATTGATCATATG")
-0.679
>>> assay_result("TCGTGTAGATCAAAGGTTAAGAAAGCCGAAGCCT")
-0.315
>>> assay_result("CCTAGCAGGCCAATCTGGGTGACTCAAGGCTTGA")
-0.721
>>> assay_result("TCATATTGGTAAACAGGTGAAAGTCCGTAAGTTA")
0.411
